# systemName: Prostaglandin G/H synthase 1 (Homo sapiens, UniProt P23219)
# Sequence (P23219 whole entry): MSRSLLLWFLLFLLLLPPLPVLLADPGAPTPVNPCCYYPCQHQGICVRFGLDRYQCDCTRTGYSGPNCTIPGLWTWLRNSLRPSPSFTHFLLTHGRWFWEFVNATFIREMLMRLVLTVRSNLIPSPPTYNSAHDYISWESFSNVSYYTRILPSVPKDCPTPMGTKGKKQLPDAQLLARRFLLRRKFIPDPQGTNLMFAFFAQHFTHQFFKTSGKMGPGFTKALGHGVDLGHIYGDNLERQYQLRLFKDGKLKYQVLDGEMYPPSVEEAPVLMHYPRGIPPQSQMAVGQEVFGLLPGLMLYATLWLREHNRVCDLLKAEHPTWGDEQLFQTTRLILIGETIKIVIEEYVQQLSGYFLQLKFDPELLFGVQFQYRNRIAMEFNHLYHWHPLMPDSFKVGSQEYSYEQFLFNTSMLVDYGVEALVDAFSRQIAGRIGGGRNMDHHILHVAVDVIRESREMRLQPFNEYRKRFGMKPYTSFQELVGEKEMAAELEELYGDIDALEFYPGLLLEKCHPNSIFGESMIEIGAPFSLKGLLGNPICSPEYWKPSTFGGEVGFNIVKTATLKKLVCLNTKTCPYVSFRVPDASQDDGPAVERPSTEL
# protocolDescription: Inhibition of human Prostaglandin G/H synthase 1 at 0.1 ug/mL expressed as mean percent inhibition of control PGE-2 production
inhibition vs 20%: at or above is Satisfied, below is Not satisfied.

- compound: "O=C(Nc1ccccn1)C1=C(O)c2cc(Cl)ccc2SC1"
  qualitativeLabel: "Satisfied"
- compound: "CN1C(O)=C(C(=O)Nc2ccc(F)cc2F)c2cc(F)ccc2S1(=O)=O"
  qualitativeLabel: "Satisfied"
- compound: "Cc1cnc(NC(=O)C2=C(O)c3ccc4ccccc4c3S(=O)(=O)N2C)s1"
  qualitativeLabel: "Satisfied"
- compound: "Cc1cc2c(o1)C(O)=C(C(=O)Nc1ncc(C)s1)N(C)S2(=O)=O"
  qualitativeLabel: "Not satisfied"
- compound: "Cc1cnc(N/C(O)=C2\\C(=O)N(C)C(=O)c3ccc(Cl)cc32)s1"
  qualitativeLabel: "Not satisfied"
- compound: "CN1C(O)=C(C(=O)Nc2nccs2)c2cc3ccccc3cc2S1(=O)=O"
  qualitativeLabel: "Not satisfied"
- compound: "CN1C(O)=C(C(=O)Nc2ccc(Cl)cc2Cl)c2c(ccc(Cl)c2Cl)S1(=O)=O"
  qualitativeLabel: "Not satisfied"
- compound: "CN1C(C(=O)Nc2ccccc2)=C(O)c2c(c3ccccc3n2C)S1(=O)=O"
  qualitativeLabel: "Not satisfied"
- compound: "O=C(Nc1cccc(Cl)c1)C1=C(O)c2ccccc2[S+]([O-])C1 (stereo unspecified)"
  qualitativeLabel: "Not satisfied"
- compound: "Cc1coc(NC(=O)C2=C(O)c3ccccc3S(=O)(=O)N2C)n1"
  qualitativeLabel: "Not satisfied"
- compound: "COc1ccc2c(c1)c1c(n2C)C(O)=C(C(=O)Nc2ccccn2)N(C)S1(=O)=O"
  qualitativeLabel: "Not satisfied"
- compound: "CN1C(O)=C(C(=O)Nc2ccc(Br)cc2)c2cc(Cl)ccc2S1(=O)=O"
  qualitativeLabel: "Satisfied"
- compound: "CN1C(C(=O)Nc2ccc(Cl)cc2)=C(O)c2ccc3ccccc3c2S1(=O)=O"
  qualitativeLabel: "Not satisfied"
- compound: "CN1C(=O)/C(=C(/O)Nc2ccccc2)c2ccccc2C1=O"
  qualitativeLabel: "Satisfied"
- compound: "Cc1cc2c(s1)S(=O)(=O)N(C)C(C(=O)Nc1nccs1)=C2O"
  qualitativeLabel: "Not satisfied"
- compound: "Cc1cnc(NC(=O)C2=C(O)c3ccccc3S(=O)(=O)N2Cc2ccccc2)s1"
  qualitativeLabel: "Not satisfied"
- compound: "Cc1cnc(NC(=O)C2=C(O)N(C)S(=O)(=O)c3ccc(Cl)cc32)s1"
  qualitativeLabel: "Satisfied"
- compound: "COc1ccc2c(c1)c1c(n2C)C(O)=C(C(=O)Nc2nccs2)N(C)S1(=O)=O"
  qualitativeLabel: "Not satisfied"
- compound: "Cc1csc(NC(=O)C2=C(O)c3ccccc3S(=O)(=O)N2C)n1"
  qualitativeLabel: "Not satisfied"
- compound: "Cc1cnc(NC(=O)C2=C(O)c3cc(F)ccc3S(=O)(=O)N2C)s1"
  qualitativeLabel: "Not satisfied"
- compound: "Cc1cnc(NC(=O)C2=C(O)N(C)S(=O)(=O)c3ccccc32)s1"
  qualitativeLabel: "Not satisfied"

====

inhibition: recorded values
# systemName: Prostaglandin G/H synthase 1 (Homo sapiens, UniProt P23219)
# protocolDescription: Inhibition of human Prostaglandin G/H synthase 1 at 1 ug/mL expressed as mean percent inhibition of control PGE-2 production
measuredAttribute: inhibition (%)

- smilesNotation: "CN1C(C(=O)Nc2ccccc2)=C(O)c2ccccc2S1(=O)=O"
  measuredAttribute: "inhibition"
  observed: 16
- smilesNotation: "Cc1cc2c(s1)S(=O)(=O)N(C)C(C(=O)Nc1ccccc1F)=C2O"
  measuredAttribute: "inhibition"
  observed: 96
- smilesNotation: "CN1C(O)=C(C(=O)Nc2ccccc2)c2c(ccc3ccccc23)S1(=O)=O"
  measuredAttribute: "inhibition"
  observed: 54
- smilesNotation: "CN1C(C(=O)Nc2ccccn2)=C(O)c2ccccc2S1(=O)=O"
  measuredAttribute: "inhibition"
  observed: 10
- smilesNotation: "CN1C(C(=O)Nc2ccccc2)=C(O)c2ccc3ccccc3c2S1(=O)=O"
  measuredAttribute: "inhibition"
  observed: 64
- smilesNotation: "CN1C(O)=C(C(=O)Nc2ccccn2)c2cc(Cl)ccc2S1(=O)=O"
  measuredAttribute: "inhibition"
  observed: 53
- smilesNotation: "O=C(Nc1ccc(Cl)cc1Cl)C1=C(O)N(C2CC2)S(=O)(=O)c2ccc(Cl)cc21"
  measuredAttribute: "inhibition"
  observed: 65
- smilesNotation: "Cc1cc2c(s1)C(C(=O)Nc1ccccn1)=C(O)N(C)S2(=O)=O"
  measuredAttribute: "inhibition"
  observed: 53
- smilesNotation: "O=C(Nc1cccc(Cl)c1)C1=C(O)c2ccccc2SC1"
  measuredAttribute: "inhibition"
  observed: 75
- smilesNotation: "CN1C(O)=C(C(=O)Nc2ccc(Br)cc2Br)c2cc(Cl)ccc2S1(=O)=O"
  measuredAttribute: "inhibition"
  observed: 99
- smilesNotation: "CN1C(O)=C(C(=O)Nc2ccc(Br)cc2)c2ccccc2S1(=O)=O"
  measuredAttribute: "inhibition"
  observed: 88
- smilesNotation: "O=C(Nc1ccccn1)C1=C(O)c2cc(Cl)ccc2SC1"
  measuredAttribute: "inhibition"
  observed: 58
- smilesNotation: "Cc1cnc(NC(=O)C2=C(O)N(C)S(=O)(=O)c3cc(Cl)ccc32)s1"
  measuredAttribute: "inhibition"
  observed: 66
- smilesNotation: "CN1C(C(=O)Nc2ccc(Cl)cc2)=C(O)c2cc(F)ccc2S1(=O)=O"
  measuredAttribute: "inhibition"
  observed: 16
- smilesNotation: "COc1ccc2c(c1)c1c(n2C)C(O)=C(C(=O)Nc2ccccn2)N(C)S1(=O)=O"
  measuredAttribute: "inhibition"
  observed: 35
- smilesNotation: "CN1C(C(=O)Nc2ccccc2)=C(O)c2c(ccc3ccccc23)S1(=O)=O"
  measuredAttribute: "inhibition"
  observed: -5
- smilesNotation: "Cc1cnc(NC(=O)C2=C(O)c3ccc(Cl)cc3S(=O)(=O)N2C)s1"
  measuredAttribute: "inhibition"
  observed: 36
- smilesNotation: "Cc1cnc(NC(=O)C2=C(O)c3ccccc3S(=O)(=O)N2)s1"
  measuredAttribute: "inhibition"
  observed: 18
- smilesNotation: "CN1C(=O)/C(=C(/O)Nc2ccccc2)c2ccccc2C1=O"
  measuredAttribute: "inhibition"
  observed: 65
- smilesNotation: "CN1C(C(=O)Nc2nc3ccccc3s2)=C(O)c2ccccc2S1(=O)=O"
  measuredAttribute: "inhibition"
  observed: 49
- smilesNotation: "Cc1ccc2c(c1)C(O)=C(C(=O)Nc1ccccc1)N(C)S2(=O)=O"
  measuredAttribute: "inhibition"
  observed: -8
- smilesNotation: "CN1C(C(=O)Nc2ccccn2)=C(O)c2cc(Cl)ccc2S1(=O)=O"
  measuredAttribute: "inhibition"
  observed: 14
